Biological target: CYP1A2 (Homo sapiens)
Construct: 0.1 mg/mL protein human liver microsomes (BD Gentest); tissue BD Gentest; host or cells: human liver microsomes
Sequence (P05177 1-516): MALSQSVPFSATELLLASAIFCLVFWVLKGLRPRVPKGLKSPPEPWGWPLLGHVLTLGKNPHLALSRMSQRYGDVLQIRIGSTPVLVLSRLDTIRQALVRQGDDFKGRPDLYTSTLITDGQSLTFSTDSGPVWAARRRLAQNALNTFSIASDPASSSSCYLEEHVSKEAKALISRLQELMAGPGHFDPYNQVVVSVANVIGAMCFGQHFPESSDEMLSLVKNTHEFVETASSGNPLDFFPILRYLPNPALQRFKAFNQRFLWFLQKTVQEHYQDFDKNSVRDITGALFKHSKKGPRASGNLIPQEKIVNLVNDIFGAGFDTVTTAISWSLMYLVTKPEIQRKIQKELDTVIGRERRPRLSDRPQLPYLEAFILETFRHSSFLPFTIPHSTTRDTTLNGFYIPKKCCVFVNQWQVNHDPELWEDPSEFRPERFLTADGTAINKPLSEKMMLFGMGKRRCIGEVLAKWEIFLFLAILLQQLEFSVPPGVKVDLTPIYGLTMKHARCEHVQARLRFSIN
Experiment: Cocktail assay for CYPs in human liver microsomes: CYP1A2 (phenacetin O-deethylation)
Format: biochemical
Conditions: human liver microsomes 0.1 mg/mL, 10 μM phenacetin, 10 min at 37° C., 6 concentrations up to 10 μM; read-out: IC50 (nM) CYP1A2
Record form. Attribute: IC50. Fill in for each entry.

compound	IC50
C[C@H](c1ccc(C#N)cc1)n1cncc1CN1CCN(c2nc3ccccc3o2)CC1	> 10000 nM

// for each compound in input: emit IC50
1. C[C@H](c1ccc(F)cc1)n1cncc1CN1CCN(Cc2cn3ccccc3n2)C(=O)C1
2. C[C@H](c1ccc(C#N)cc1)n1cncc1CN1CCN(c2ccccc2)C(C(=O)N2CCCCC2)C1 (single isomer, unassigned) [Compound 45a]
3. C[C@H](c1ccc(C#N)cc1)n1cncc1CN1CCN(c2ccccc2)C(C(=O)N2CCOCC2)C1 (some centres unmarked)

Reply:
≥ 10000 nM
> 10000 nM
> 10000 nM
